Assay: qHTS RealTime-Glo MT Cell Viability Assay in HepG2 cells - 24 hour (AID 1224867); also: nearly all actives have a fitted effect of over 50% in size
Details: RealTime-Glo luminescence; series mostly up to 76.8 µM
Records with an inconclusive call do not appear. Activity calls are given as the source filed them. Calls follow the shape of the dose curve; as a rule, active = well fitted cell-killing curve with a large enough effect in the repeat runs; inconclusive = weak or mixed curves; inactive = flat fitted curve, though single readings scatter.
reportedProperty: activity change, negative = cytotoxicity

[
  {
    "molecule": "Nc1ccc(C(=O)Oc2ccccc2)c(O)c1",
    "result": "inactive"
  },
  {
    "molecule": "O=C(OCCN1CCOCC1)c1cccnc1Nc1cccc(C(F)(F)F)c1",
    "result": "inactive"
  },
  {
    "molecule": "NC(=O)c1ccccc1C(N)=O",
    "result": "inactive"
  },
  {
    "molecule": "O=C(O)CNc1ccccc1",
    "result": "inactive"
  }
]

Provide activity change, negative = cytotoxicity values for the following items, in order.
1. CC1(C)[C@@H]2CC[C@]3(C2)[C@@H]1C(=O)CCC3(C)C
2. O=C1CCCN1CCO
3. O=C1c2ccccc2C(=O)C1c1ccc2cc(S(=O)(=O)O)cc(S(=O)(=O)O)c2n1
4. O=C(c1ccco1)N1CCNCC1

1: inactive; 2: inactive; 3: inactive; 4: inactive
